MEASURED ON: T1, native IHFNTHI (integration host factor of nontypeable Haemophilus influenzae) (nontypeable Haemophilus influenzae …, UniProt P43723 1-96; P43724 1-94)
T1 construct: also called NTHI IHF
T1 sequence 1: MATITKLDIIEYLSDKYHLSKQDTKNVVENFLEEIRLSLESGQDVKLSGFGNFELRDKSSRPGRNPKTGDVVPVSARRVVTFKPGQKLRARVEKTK
T1 sequence 2: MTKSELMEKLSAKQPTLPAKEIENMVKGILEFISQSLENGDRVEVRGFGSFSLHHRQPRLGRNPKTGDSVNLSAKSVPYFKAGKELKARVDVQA
ASSAY NAME: SPR Biacore 3000, IHFNTHI immobilized, HuMab as analyte
So basically, if koff comes in under 0.006 s⁻¹ it's TRUE, and if it's 0.006 s⁻¹ or more it's FALSE.

| BINDER | LABEL |
| --- | --- |
| humanized anti-tip monoclonal antibody, heavy chain SEQ ID NO: 3 and light chain SEQ ID NO: 9 (antibody, V domains shown, also called H10212 (1F8.F1 Humanized HC3) + L10212 (1F8.F1 Humanized LC3)) VH: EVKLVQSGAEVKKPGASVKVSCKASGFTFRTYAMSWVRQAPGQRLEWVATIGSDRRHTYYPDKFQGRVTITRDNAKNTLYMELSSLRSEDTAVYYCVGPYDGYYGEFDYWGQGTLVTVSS VL: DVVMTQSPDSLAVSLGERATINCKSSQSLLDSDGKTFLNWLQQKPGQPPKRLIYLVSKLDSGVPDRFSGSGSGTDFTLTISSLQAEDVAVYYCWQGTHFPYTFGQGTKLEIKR | FALSE |
| humanized anti-tip monoclonal antibody, heavy chain SEQ ID NO: 1 and light chain SEQ ID NO: 7 (antibody, V domains shown, also called HuTipMab; TP-21949) VH: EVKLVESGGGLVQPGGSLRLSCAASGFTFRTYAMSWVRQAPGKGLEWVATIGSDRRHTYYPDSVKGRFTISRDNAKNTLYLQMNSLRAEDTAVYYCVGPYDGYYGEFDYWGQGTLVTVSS VL: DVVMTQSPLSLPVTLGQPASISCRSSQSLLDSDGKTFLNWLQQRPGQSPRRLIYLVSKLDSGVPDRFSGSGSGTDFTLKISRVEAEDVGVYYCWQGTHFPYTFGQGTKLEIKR | TRUE |
| humanized anti-tip monoclonal antibody, heavy chain SEQ ID NO: 2 and light chain SEQ ID NO: 8 (antibody, V domains shown, also called H10211 (1F8.F1 Humanized HC2) + L10211 (1F8.F1 Humanized LC2)) VH: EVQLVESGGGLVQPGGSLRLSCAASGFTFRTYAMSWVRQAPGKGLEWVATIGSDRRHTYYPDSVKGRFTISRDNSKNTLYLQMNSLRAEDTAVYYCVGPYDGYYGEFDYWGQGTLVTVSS VL: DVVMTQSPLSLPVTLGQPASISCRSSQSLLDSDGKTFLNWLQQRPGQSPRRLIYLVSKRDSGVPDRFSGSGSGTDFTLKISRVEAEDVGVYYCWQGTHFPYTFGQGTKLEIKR | TRUE |
| humanized anti-tip monoclonal antibody, heavy chain SEQ ID NO: 3 and light chain SEQ ID NO: 7 (antibody, V domains shown, also called H10212 (1F8.F1 Humanized HC3) + L10210 (1F8.F1 Humanized LC1)) VH: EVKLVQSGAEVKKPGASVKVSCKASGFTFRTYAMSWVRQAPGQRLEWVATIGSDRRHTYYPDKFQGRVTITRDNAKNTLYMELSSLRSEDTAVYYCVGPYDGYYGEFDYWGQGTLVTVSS VL: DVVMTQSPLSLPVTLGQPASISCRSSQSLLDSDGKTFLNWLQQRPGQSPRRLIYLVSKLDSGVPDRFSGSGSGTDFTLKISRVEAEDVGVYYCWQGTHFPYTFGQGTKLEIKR | TRUE |
